These entries and their values trace back to ChEMBL document CHEMBL4706501.

# Tested on: MGC-803
# measurement_protocol: Antiproliferative activity against human MGC-803 cells assessed as reduction in cell viability after 24 to 72 hrs by MTT assay
# Type: functional, cell-based
measurement_kind: IC50

**Query** Data request, read-out IC50, for COc1cc(C(=O)NC2CCCNC2)cc(OC)c1OC (stereo unspecified) [TROXIPIDE]
**Result** > 100 µM
